Assay type: in vitro ADME, Rat
Test conditions: rat, pH 7.4
*1 amine or outer side, *2 acyl side, *3 side chain or, on linkers, in order; H or OH if unused. Where a SMILES comes first, the peptide text is derived from it. [ ]: non-standard residue; d: D form. X3 = C#CCOc1ccc([C@@H](OC)[C@H](N[*:1])C(=O)[*:2])cc1; NMeTrp(1-Me) = CN[C@@H](Cc1cn(C)c2ccccc12)C(=O)O; X4 = C=CCO[C@H](c1ccccc1)[C@H](N[*:1])C(=O)[*:2]; NMeLeu(5-OH,4R) = CN[C@@H](C[C@@H](C)CO)C(=O)O; Phe(βR-OMe) = CO[C@H](c1ccccc1)[C@H](N)C(=O)O; Trp(1-Me) = Cn1cc(C[C@H](N)C(=O)O)c2ccccc21; NMeL = CN[C@@H](CC(C)C)C(=O)O; Pra = C#CC[C@H](N)C(=O)O
Please go through the items and note down their Hepatocyte Stability Rat QH.

Worked examples follow.
| Compound | Hepatocyte Stability Rat QH |
| --- | --- |
| COC(c1ccccc1)C1NC(=O)C(C)NC(=O)C(CC(C)CO)N(C)C(=O)C(Cc2cn(CC=CCn3cc(CC4NC(=O)C(C(C)C)NC(=O)C(CC(C)C)N(C)C(=O)C(C(C)C)NC(=O)C(C(OC)c5ccccc5)NC(=O)C(C)NC(=O)C(CC(C)CO)N(C)C4=O)c4ccccc43)c3ccccc23)NC(=O)C(C(C)C)NC(=O)C(CC(C)C)N(C)C(=O)C(C(C)C)NC1=O (stereo not drawn) | 6.192% |
| C#CCOc1ccc([C@@H](OC)[C@@H]2NC(=O)[C@H](C)NC(=O)[C@H](C[C@@H](C)CO)N(C)C(=O)[C@H](Cc3cn(C)c4ccccc34)NC(=O)[C@H](C(C)C)NC(=O)[C@H](CC(C)C)N(C)C(=O)[C@H](C(C)C)NC2=O)cc1 [SI-38] (cyclo(A[X3]V[NMeL]V[Trp(1-Me)][NMeLeu(5-OH,4R)])) | 37.130% |
| CO[C@H](c1ccccc1)[C@@H]1NC(=O)[C@H](C)NC(=O)[C@H](C[C@@H](C)CO)N(C)C(=O)[C@H](Cc2cn(C)c3ccccc23)N(C)C(=O)[C@H](CCC(=O)N(C)C)NC(=O)[C@H](CC(C)C)N(C)C(=O)[C@H](C(C)C)NC1=O [SI-76] (cyclo(A[Phe(βR-OMe)]V[NMeL]E(NMe2)[NMeTrp(1-Me)][NMeLeu(5-OH,4R)])) | 52.287% |
| C#CC[C@@H]1NC(=O)[C@H](CC(C)C)N(C)C(=O)[C@H](C(C)C)NC(=O)[C@H]([C@H](OC)c2ccccc2)NC(=O)[C@H](C)NC(=O)[C@H](C[C@@H](C)CO)N(C)C(=O)[C@H](Cc2cn(C)c3ccccc23)N(C)C1=O [Compound 20] (cyclo(A[Phe(βR-OMe)]V[NMeL][Pra][NMeTrp(1-Me)][NMeLeu(5-OH,4R)])) | 63.002% |
| CO[C@H](c1ccccc1)[C@@H]1NC(=O)[C@H](C)NC(=O)[C@H](C[C@@H](C)CO)N(C)C(=O)[C@H](Cc2cn(C)c3ccccc23)NC(=O)[C@H](Cc2cn(CCOCCOCCn3cc(C[C@@H]4NC(=O)[C@H](CC(C)C)N(C)C(=O)[C@H](C(C)C)NC(=O)[C@H]([C@H](OC)c5ccccc5)NC(=O)[C@H](C)NC(=O)[C@H](C[C@@H](C)CO)N(C)C(=O)[C@H](Cc5cn(C)c6ccccc56)NC4=O)nn3)nn2)NC(=O)[C@H](CC(C)C)N(C)C(=O)[C@H](C(C)C)NC1=O | 6.192% |

Problem: # input compound: C=CCO[C@H](c1ccccc1)[C@@H]1NC(=O)[C@H](C)NC(=O)[C@H](C[C@@H](C)CO)N(C)C(=O)[C@H](Cc2cn(C)c3ccccc23)NC(=O)[C@H](C(C)C)NC(=O)[C@H](CC(C)C)N(C)C(=O)[C@H](C(C)C)NC1=O [Compound 14] (cyclo(A[X4]V[NMeL]V[Trp(1-Me)][NMeLeu(5-OH,4R)])) ; wanted: its Hepatocyte Stability Rat QH
Result: 56.626%

----------
Please go through the items and note down their Influence of N-methylation on permeability.
System: Caco-2 monolayers
Experiment notes: in vitro
Test conditions: human, Caco-2
*1 amine or outer side, *2 acyl side, *3 side chain or, on linkers, in order; H or OH if unused. Where a SMILES comes first, the peptide text is derived from it. [ ]: non-standard residue; d: D form. Trp(1-(1,1-Me2-allyl)) = C=CC(C)(C)n1cc(C[C@H](N)C(=O)O)c2ccccc21; Ala(3R-Me,3-isobutenyl) = CC(C)=C[C@@H](C)[C@H](N)C(=O)O; X2 = C#CCn1cc(C[C@@H](C(=O)[*:2])N(C)[*:1])c2ccccc21; X1 = C#CCn1cc(C[C@H](N[*:1])C(=O)[*:2])c2ccccc21; NMeLeu(5-OH,4R) = CN[C@@H](C[C@@H](C)CO)C(=O)O; Phe(βR-OMe) = CO[C@H](c1ccccc1)[C@H](N)C(=O)O; NMeL = CN[C@@H](CC(C)C)C(=O)O
One number for each entry.

Worked examples follow.
| Compound | Numeric readout |
| --- | --- |
| C=CC(C)(C)n1cc(C[C@@H]2NC(=O)[C@H]([C@H](C)C=C(C)C)NC(=O)[C@H](CC(C)C)N(C)C(=O)[C@H](C(C)C)NC(=O)[C@H]([C@H](OC)c3ccccc3)NC(=O)[C@H](C)NC(=O)[C@H](C[C@@H](C)CO)N(C)C2=O)c2ccccc21 [dCymC] (cyclo([Trp(1-(1,1-Me2-allyl))][NMeLeu(5-OH,4R)]A[Phe(βR-OMe)]V[NMeL][Ala(3R-Me,3-isobutenyl)])) | 1.6 |
| C#CCn1cc(C[C@@H]2NC(=O)[C@H](C(C)C)NC(=O)[C@H](CC(C)C)N(C)C(=O)[C@H](C(C)C)NC(=O)[C@H]([C@H](OC)c3ccccc3)NC(=O)[C@H](C)NC(=O)[C@H](C[C@@H](C)CO)N(C)C2=O)c2ccccc21 [Compound 5] (cyclo(A[Phe(βR-OMe)]V[NMeL]V[X1][NMeLeu(5-OH,4R)])) | 9.3 |

Let's switch to this compound now.
Problem: Identify the measured Influence of N-methylation on permeability of C#CCn1cc(C[C@H]2C(=O)N(C)[C@@H](C[C@@H](C)CO)C(=O)N[C@@H](C)C(=O)N[C@@H]([C@H](OC)c3ccccc3)C(=O)N[C@@H](C(C)C)C(=O)N(C)[C@@H](CC(C)C)C(=O)N[C@@H](C(C)C)C(=O)N2C)c2ccccc21 [Compound 26] (cyclo(A[Phe(βR-OMe)]V[NMeL]V[X2][NMeLeu(5-OH,4R)])) for Caco-2 monolayers.
Result: 9.3

----------
Please go through the items and note down their Hepatocyte Human.
Type: in vitro ADME, Human
Test conditions: human, pH 7.4
*1 amine or outer side, *2 acyl side, *3 side chain or, on linkers, in order; H or OH if unused. Where a SMILES comes first, the peptide text is derived from it. [ ]: non-standard residue; d: D form. X3 = C#CCOc1ccc([C@@H](OC)[C@H](N[*:1])C(=O)[*:2])cc1; X4 = C=CCO[C@H](c1ccccc1)[C@H](N[*:1])C(=O)[*:2]; NMeLeu(5-OH,4R) = CN[C@@H](C[C@@H](C)CO)C(=O)O; Trp(1-Me) = Cn1cc(C[C@H](N)C(=O)O)c2ccccc21; NMeL = CN[C@@H](CC(C)C)C(=O)O
Answers are plain numbers, in %Qh.

Worked examples follow.
| Compound | Unit info | Hepatocyte Human |
| --- | --- | --- |
| COC(c1ccccc1)C1NC(=O)C(C)NC(=O)C(CC(C)CO)N(C)C(=O)C(Cc2cn(CC=CCn3cc(CC4NC(=O)C(C(C)C)NC(=O)C(CC(C)C)N(C)C(=O)C(C(C)C)NC(=O)C(C(OC)c5ccccc5)NC(=O)C(C)NC(=O)C(CC(C)CO)N(C)C4=O)c4ccccc43)c3ccccc23)NC(=O)C(C(C)C)NC(=O)C(CC(C)C)N(C)C(=O)C(C(C)C)NC1=O (stereo not drawn) | %Qh | 12 |
| C=CCO[C@H](c1ccccc1)[C@@H]1NC(=O)[C@H](C)NC(=O)[C@H](C[C@@H](C)CO)N(C)C(=O)[C@H](Cc2cn(C)c3ccccc23)NC(=O)[C@H](C(C)C)NC(=O)[C@H](CC(C)C)N(C)C(=O)[C@H](C(C)C)NC1=O [Compound 14] (cyclo(A[X4]V[NMeL]V[Trp(1-Me)][NMeLeu(5-OH,4R)])) | %Qh | 41 |

Let's switch to this compound now.
Problem: # input compound: C#CCOc1ccc([C@@H](OC)[C@@H]2NC(=O)[C@H](C)NC(=O)[C@H](C[C@@H](C)CO)N(C)C(=O)[C@H](Cc3cn(C)c4ccccc34)NC(=O)[C@H](C(C)C)NC(=O)[C@H](CC(C)C)N(C)C(=O)[C@H](C(C)C)NC2=O)cc1 [SI-38] (cyclo(A[X3]V[NMeL]V[Trp(1-Me)][NMeLeu(5-OH,4R)])) ; wanted: its Hepatocyte Human
Result: 19

Source listed as paper PMC10914731.
